Source of measurements: the supplement of paper PMC11219838

Below, each entry is listed with its recorded proportion of mobile M. hapla J2.
Test system: Meloidogyne hapla J2
test description: proportion of mobile M. hapla J2 relative to DMSO control (fraction of DMSO control); higher = more viable, less nematicidal, active = 0.7 or less
settings: 60 µM; 5 days; temperature: 20 °C
Answer field: number only, no words.

# molecule, measured on, proportion of mobile M. hapla J2
measured = [
    ("CC(C)C(=O)Nc1ccccc1-c1nc(-c2ccccc2)no1", "Meloidogyne hapla J2", 0.957),
]

Ask: Quick one: give measured proportion of mobile M. hapla J2 for Clc1ccccc1-c1noc(COc2ccc(Br)cc2)n1
Reply: 1.05

Ask: Tell me proportion of mobile M. hapla J2 reported for COc1ccccc1OCc1nc(-c2ccccc2)no1
Reply: 0.973

Ask: Give the measured proportion of mobile M. hapla J2 for CC(C)(C)c1ccc(-c2nnc(SCc3cccc(C#N)c3)o2)cc1
Reply: 1.05

Ask: // fetch proportion of mobile M. hapla J2 given entry COc1ccccc1NC(=O)CSc1nnc(-c2ccc(Cl)cc2)o1
Reply: 0.902

Ask: Please report the measured proportion of mobile M. hapla J2 for COc1ccc(-c2noc(COc3ccc(Cl)cc3C)n2)cc1
Reply: 0.94

Ask: Quote proportion of mobile M. hapla J2 reported for O=C(CSc1nnc(-c2ccc(Cl)cc2)o1)Nc1nccs1 please.
Reply: 0.917

Ask: Tell me proportion of mobile M. hapla J2 reported for Brc1ccc(OCc2nc(-c3cccnc3)no2)cc1
Reply: 0.955

Ask: Item Cc1cccc(-c2nnc(SCC(=O)NCCc3ccccc3)o2)c1 : provide proportion of mobile M. hapla J2
Reply: 0.872

====

Tested on: Meloidogyne hapla J2
test description: proportion of mobile M. hapla J2 relative to DMSO control (fraction of DMSO control); higher = more viable, less nematicidal, active = 0.7 or less
settings: 60 µM; 5 days; temperature: 20 °C
measurement label: proportion of mobile M. hapla J2
// keep it numeric: no unit symbol after the value

See these solved cases before continuing.
# compound, measured on, proportion of mobile M. hapla J2
records = [
    ("CC(=O)Nc1ccc(C(=O)CSc2nnc(-c3cccc(Br)c3)o2)cc1", "Meloidogyne hapla J2", 1.01),
    ("O=C(CSc1nnc(-c2cccc3ccccc23)o1)c1ccc(F)cc1", "Meloidogyne hapla J2", 0.912),
    ("COc1nc(-c2ccc(C)cc2)ccc1-c1noc(-c2ccc(F)cc2)n1", "Meloidogyne hapla J2", 0.925),
]

Ask: Please give measured proportion of mobile M. hapla J2 of the following entry: O=C(CSc1nnc(-c2ccc(Br)cc2)o1)Nc1cccc2ccccc12
Reply: 0.923

====

Tested on: Meloidogyne hapla J2
test description: proportion of mobile M. hapla J2 relative to DMSO control (fraction of DMSO control); higher = more viable, less nematicidal, active = 0.7 or less
settings: 60 µM; 5 days; temperature: 20 °C
Measured proportion of mobile M. hapla J2 values are reported for all entries that follow.
Just the number, please, no unit attached.

Solved entries:
# compound, measured on, measurement label, measured value
records = [
    ("O=C(CSc1nnc(-c2cccc(Cl)c2)o1)N1CCCCC1", "Meloidogyne hapla J2", "proportion of mobile M. hapla J2", 1),
    ("O=C(Nc1ccccc1-c1nc(-c2ccncc2)no1)c1ccc(Cl)cc1", "Meloidogyne hapla J2", "proportion of mobile M. hapla J2", 0.909),
    ("CCN(C(=O)CSc1nnc(-c2ccncc2)o1)c1ccccc1", "Meloidogyne hapla J2", "proportion of mobile M. hapla J2", 0.965),
    ("COc1ccccc1-c1nc(-c2ccc(Br)cc2)no1", "Meloidogyne hapla J2", "proportion of mobile M. hapla J2", 1.04),
    ("Cc1ccc(-c2nc(-c3ccccc3Cl)no2)cc1", "Meloidogyne hapla J2", "proportion of mobile M. hapla J2", 0.998),
    ("Cc1cccc(-c2nnc(SCC(=O)Nc3ccccc3F)o2)c1", "Meloidogyne hapla J2", "proportion of mobile M. hapla J2", 0.753),
]

Ask: Report proportion of mobile M. hapla J2 for Clc1ccc(-c2nnc(SCc3ccccc3)o2)c(Cl)c1
Reply: 0.957

Ask: Tell me proportion of mobile M. hapla J2 reported for COc1ccc(-c2noc(CSc3nc(C)cc(C)n3)n2)cc1
Reply: 0.992

Ask: Please report proportion of mobile M. hapla J2 for the following compound: O=C(CSc1nnc(-c2ccc(Cl)cc2Cl)o1)N1CCCCC1
Reply: 0.934

Ask: For the compound COc1ccc(-c2nnc(SCC(=O)Nc3ccc(C(C)C)cc3)o2)cc1 , give its reported proportion of mobile M. hapla J2.
Reply: 0.967

Ask: Please give measured proportion of mobile M. hapla J2 of the following entry: O=C(CSc1nnc(-c2ccccc2)o1)NCc1ccccc1
Reply: 0.948
